Parameter IC50, reporter cell assay of TGFβ1 activation: see the listing below.
- Study Target: hLRRC33-proTGFβ1 complex on cells (human, UniProt Q86YC3 19-692; P01137 30-390)
- Sequence (Q86YC3 19-692 limits assumed, chain 1 of 2): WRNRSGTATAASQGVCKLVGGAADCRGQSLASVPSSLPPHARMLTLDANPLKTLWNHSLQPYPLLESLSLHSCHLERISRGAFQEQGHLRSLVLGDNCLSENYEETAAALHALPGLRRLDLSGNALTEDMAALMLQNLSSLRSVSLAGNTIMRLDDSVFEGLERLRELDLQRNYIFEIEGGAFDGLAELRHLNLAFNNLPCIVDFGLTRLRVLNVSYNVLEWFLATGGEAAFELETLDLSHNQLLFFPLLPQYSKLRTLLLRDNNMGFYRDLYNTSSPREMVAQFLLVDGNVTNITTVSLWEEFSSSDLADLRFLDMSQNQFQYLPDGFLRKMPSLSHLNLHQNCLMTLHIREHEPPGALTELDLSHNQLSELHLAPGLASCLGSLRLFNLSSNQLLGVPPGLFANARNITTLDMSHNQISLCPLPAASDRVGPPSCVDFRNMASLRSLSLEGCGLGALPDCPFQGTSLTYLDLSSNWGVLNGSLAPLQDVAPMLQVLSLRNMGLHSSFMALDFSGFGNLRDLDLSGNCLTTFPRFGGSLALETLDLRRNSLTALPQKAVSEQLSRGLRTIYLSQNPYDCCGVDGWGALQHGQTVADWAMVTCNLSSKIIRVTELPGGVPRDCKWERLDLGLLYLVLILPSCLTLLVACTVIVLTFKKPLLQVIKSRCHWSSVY
- Sequence (P01137 30-390 limits assumed, chain 2 of 2): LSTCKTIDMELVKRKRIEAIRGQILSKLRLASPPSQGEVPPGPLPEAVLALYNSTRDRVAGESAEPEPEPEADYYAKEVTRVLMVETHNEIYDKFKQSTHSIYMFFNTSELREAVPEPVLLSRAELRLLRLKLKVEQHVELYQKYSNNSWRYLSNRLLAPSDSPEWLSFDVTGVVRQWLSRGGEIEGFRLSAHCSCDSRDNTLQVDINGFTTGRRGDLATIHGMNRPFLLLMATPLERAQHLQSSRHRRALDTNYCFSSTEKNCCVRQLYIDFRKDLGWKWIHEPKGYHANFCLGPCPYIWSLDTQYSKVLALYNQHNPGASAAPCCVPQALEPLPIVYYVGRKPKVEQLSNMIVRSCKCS
- Assay Procedure: cell-based or functional assay
Readout Type: IC50, reporter cell assay of TGFβ1 activation (nM)

Binder	Readout Unit	Endpoint Result
Ab5 (antibody, V domains shown) VH: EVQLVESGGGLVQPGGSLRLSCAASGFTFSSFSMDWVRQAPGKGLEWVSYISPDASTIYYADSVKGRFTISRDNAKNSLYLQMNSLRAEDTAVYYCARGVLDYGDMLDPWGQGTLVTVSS VL: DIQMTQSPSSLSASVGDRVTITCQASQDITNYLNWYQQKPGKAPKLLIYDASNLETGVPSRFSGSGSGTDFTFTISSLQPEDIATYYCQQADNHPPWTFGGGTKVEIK	nM	0.616
Ab25 (antibody, V domains shown) VH: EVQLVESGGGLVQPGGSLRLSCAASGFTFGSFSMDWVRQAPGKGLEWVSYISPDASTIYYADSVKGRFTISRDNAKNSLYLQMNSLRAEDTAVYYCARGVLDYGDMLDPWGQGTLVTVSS VL: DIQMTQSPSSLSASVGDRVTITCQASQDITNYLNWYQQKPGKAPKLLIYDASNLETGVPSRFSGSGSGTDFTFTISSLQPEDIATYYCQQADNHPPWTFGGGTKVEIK	nM	0.653
Ab1 (antibody, V domains shown) VH: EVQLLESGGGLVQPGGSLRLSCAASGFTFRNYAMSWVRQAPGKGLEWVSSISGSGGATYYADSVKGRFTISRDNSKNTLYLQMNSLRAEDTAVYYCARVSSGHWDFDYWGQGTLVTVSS VL: DIQLTQSPSSLSASVGDRVTITCQASQDISNFLNWYQQKPGKAPKLLIYDASNLETGVPSRFSGSGSGTDFTFTISSLQPEDIATYYCQQVFNPPLTFGGGTKVEIK	nM	5.37
Ab2 (antibody, human IgG4 S228P, kappa, V domains shown) VH: EVQLLESGGGLVQPGGSLRLSCAASGFTFADYAMTWVRQAPGKGLEWVSAISGSGAATYFADSVKGRFTISRDNSKNTLYLQMNSLRAEDTAVYYCARVSSGHWDFDYWGQGTLVTVSS VL: DIQLTQSPSSLSASVGDRVTITCRASQSISSYLNWYQQKPGKAPKLLIYAASNLQSGVPSRFSGSGSGTDFTLTISSLQPEDFATYYCQQTYTVPLTFGGGTKVEIKR	nM	1.38
Ab6 (antibody, human IgG4 S228P, kappa, V domains shown) VH: EVQLVESGGGLVQPGGSLRLSCTASGFTFSSFSMDWVRQAPGKGLEWVSYISPSADTIYYADSVKGRFTISRDNAKNTLYLQMNSLRAEDTAVYYCARGVLDYGDMLMPWGQGTLVTVSS VL: DIQMTQSPSSLSASVGDRVTITCQASQDITNYLNWYQQKPGKAPKLLIYDASNLETGVPSRFSGSGSGTDFTFTISSLQPEDIATYYCQQADNHPPWTFGGGTKVEIKR	nM	0.495

Sourced from patent US20220064275A1
